Target: T1, Human γD crystallin (human, UniProt P07320 2-174, limits assumed)
T1 sequence (looked up): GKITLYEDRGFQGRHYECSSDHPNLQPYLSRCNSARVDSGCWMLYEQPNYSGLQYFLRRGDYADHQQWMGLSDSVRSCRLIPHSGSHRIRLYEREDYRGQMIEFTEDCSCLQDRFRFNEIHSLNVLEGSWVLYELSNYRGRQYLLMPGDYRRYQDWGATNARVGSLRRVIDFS
Assay: cell-based or functional assay
Listing: Δfluorescence (γD crystallin), Thioflavin T, 72 h at 50° C (no chaperone: 888,803,840) of selected binders
measurement kind: Δfluorescence (γD crystallin), Thioflavin T, 72 h at 50° C (no chaperone: 888,803,840)

binder | endpoint result
LTITSSLSSDGV | 6.75e+08
HGKHEERQDE | 7.34e+08
ERTIPITRE | 6.11e+08
STSLSPFYLRPPSFLRAP | 6.06e+08
DRFSVNLDVKHFS | 6.61e+08

meta.source: patent US20070185028A1
